assay-readout: melting point

Read off the recorded melting point for C[C@@H]1OC(=O)[C@@H](NC(=O)OC(C)(C)C)COC[C@H](c2ccccc2)[C@H]1c1ccccc1
63 to 71 °C

Read off the recorded melting point for C[C@H]1OC(=O)[C@@H](N)COC[C@H](Cc2ccccc2)[C@H]1Cc1ccccc1.Cl
206 to 211 °C

Read off the recorded melting point for C[C@@H]1OC(=O)[C@@H](NC(=O)OC(C)(C)C)COC[C@H](Cc2ccccc2)[C@H]1Cc1ccccc1
41 to 45 °C

Read off the recorded melting point for C[C@@H]1OC(=O)[C@@H](N)COC[C@H](CCCc2ccccc2)[C@H]1CCc1ccccc1.Cl
147 to 151 °C

Read off the recorded melting point for CCC[C@H]1COC[C@H](NC(=O)c2nccc(OC)c2OCOC(C)=O)C(=O)O[C@@H](C)[C@@H]1Cc1ccc(F)cc1
38 to 43 °C

Read off the recorded melting point for COc1ccnc(C(=O)N[C@H]2COC[C@H](CC3CC3)[C@@H](Cc3ccccc3)[C@H](C)OC2=O)c1O
56 to 61 °C

Read off the recorded melting point for COc1ccnc(C(=O)N[C@H]2COC[C@H](Cc3ccccc3)[C@@H](Cc3ccc(OC(F)(F)F)cc3)[C@H](C)OC2=O)c1O
63 to 69 °C

Read off the recorded melting point for COc1ccnc(C(=O)N[C@H]2COC[C@H](Cc3ccc(Cl)cc3)[C@@H](C3CCCC3)[C@H](C)OC2=O)c1OCOC(=O)C(C)C
54 to 58 °C

Read off the recorded melting point for C[C@@H]1OC(=O)[C@@H](NC(=O)OC(C)(C)C)COC[C@H](Cc2ccc(Cl)cc2)[C@H]1C1CCCC1
113 to 115 °C

Read off the recorded melting point for C[C@@H]1OC(=O)[C@@H](N)COC[C@H](Cc2ccc(Cl)cc2)[C@H]1Cc1ccc(OC(F)(F)F)cc1.Cl
144 to 148 °C

Read off the recorded melting point for COc1ccnc(C(=O)N[C@H]2COC[C@H](CCC(C)C)[C@@H](C3CCCC3)[C@H](C)OC2=O)c1OCOC(C)=O
47 to 53 °C

Read off the recorded melting point for C[C@@H]1OC(=O)[C@@H](N)COC[C@H](CC2CC2)[C@H]1Cc1ccccc1.Cl
189 to 195 °C

Read off the recorded melting point for C=C(C)COC[C@@H]1[C@@H](Cc2ccccc2)COC[C@H](NC(=O)OC(C)(C)C)C(=O)O[C@H]1C
84 to 88 °C

Read off the recorded melting point for COc1ccnc(C(=O)N[C@H]2COC[C@H](Cc3ccccc3)[C@@H](Cc3ccccc3)[C@H](C)OC2=O)c1OC(C)=O
67 to 71 °C

Read off the recorded melting point for CC(C)C[C@@H]1[C@@H](Cc2ccc(C(F)(F)F)cc2)COC[C@H](NC(=O)OC(C)(C)C)C(=O)O[C@H]1C
115 to 118 °C

Read off the recorded melting point for COc1ccnc(C(=O)N[C@H]2COC[C@H](Cc3ccccc3)[C@@H](Cc3ccccc3)[C@@H](C)OC2=O)c1O
201 to 204 °C

Read off the recorded melting point for COc1ccnc(C(=O)N[C@H]2COC[C@H](Cc3ccc(Cl)cc3)[C@@H](C3CCCC3)[C@H](C)OC2=O)c1OC(C)=O
85 to 89 °C

Read off the recorded melting point for CC(C)COC[C@@H]1[C@@H](Cc2ccccc2)COC[C@H](N)C(=O)O[C@H]1C.Cl
196 to 199 °C

Read off the recorded melting point for COc1ccnc(C(=O)N[C@H]2COC[C@H](CC3CC3)[C@@H](Cc3ccccc3)[C@H](C)OC2=O)c1OCOC(C)=O
41 to 45 °C

Read off the recorded melting point for CCOCC(=O)OCOc1c(OC)ccnc1C(=O)N[C@H]1COC[C@H](Cc2ccc(Cl)cc2)[C@@H](C2CCCC2)[C@H](C)OC1=O
52 to 55 °C

Read off the recorded melting point for C=C(C)COC[C@@H]1[C@@H](Cc2ccccc2)COC[C@H](NC(=O)c2nccc(OC)c2OCOC(C)=O)C(=O)O[C@H]1C
35 to 40 °C

Read off the recorded melting point for COc1ccnc(C(=O)N[C@H]2COC[C@H](Cc3ccccc3)[C@@H](COc3ccccc3)[C@H](C)OC2=O)c1OCOC(C)=O
56 to 61 °C

Read off the recorded melting point for COc1ccnc(C(=O)N[C@H]2COC[C@H](CC3CC3)[C@@H](Cc3ccccc3)[C@H](C)OC2=O)c1OC(C)=O
125 to 128 °C

Read off the recorded melting point for C[C@@H]1OC(=O)[C@@H](NC(=O)OC(C)(C)C)COC[C@H](Cc2ccc(C(F)(F)F)cc2)[C@H]1Cc1ccc(OC(F)(F)F)cc1
50 to 56 °C

Ref: patent US9955691B2
